These entries and their values trace back to patent US11752139B2.

- assayProcedure: Study 2: pharmacokinetics of oral irinotecan and M1, 5-20 mg/m^2 per day for 10 days during a 21 day cycle
- particulars: human, in vivo, oral, 10 mg/m2, Cmax, Day 1; dose group 10 mg/m^2; mean
reportedEndpoint: Cmax (ng/mL)
Please respond with the number in ng/mL and leave the unit unwritten.

For the molecule CCc1c2c(nc3ccc(OC(=O)N4CCC(N5CCCCC5)CC4)cc13)-c1cc3c(c(=O)n1C2)COC(=O)[C@]3(O)CC [oral irinotecan, reference compound] , what Cmax is on record? 15.5

* * *

- assayProcedure: Study 2: pharmacokinetics of oral irinotecan and M1, 5-20 mg/m^2 per day for 10 days during a 21 day cycle
- particulars: human, in vivo, oral, 15 mg/m2, AUC24, Day 1; dose group 15 mg/m^2; mean
reportedEndpoint: AUC (ng·h/mL)
Note: unit ng·h/mL is implicit; provide only the numeric part.

Given the entry CCc1c2c(nc3ccc(OC(=O)N4CCC(N5CCCCC5)CC4)cc13)-c1cc3c(c(=O)n1C2)COC(=O)[C@]3(O)CC [oral irinotecan, reference compound] , report its measured AUC. 284

* * *

- assayProcedure: clinical
- particulars: human, in vivo, 320 mg/m2, Observed Mean (Cmax)
reportedEndpoint: Cmax (ng/mL)
Give your result in ng/mL as a bare value.

Fill blank: measured Cmax of the compound CCc1c2c(nc3ccc(OC(=O)N4CCC(N5CCCCC5)CC4)cc13)-c1cc3c(c(=O)n1C2)COC(=O)[C@]3(O)CC [oral irinotecan, reference compound] is ____. 1060

* * *

- particulars: dose 280 mg/m^2
reportedEndpoint: Observed Mean AUCinf (ng·h/mL)
Note: unit ng·h/mL is implicit; provide only the numeric part.

Request the reported Observed Mean AUCinf associated with CCc1c2c(nc3ccc(O)cc13)-c1cc3c(c(=O)n1C2)COC(=O)[C@]3(O)CC [Compound M1] 468

* * *

- assayProcedure: clinical
- particulars: human, in vivo, po, AUC24 h, dose 240 mg/m^2 oral irinotecan + 15 mg HM30181A; N = 3
reportedEndpoint: AUC(0-t) (ng·h/mL)
Reply with just the number (in ng·h/mL).

What does the record list as AUC(0-t) for CCc1c2c(nc3ccc(OC(=O)N4CCC(N5CCCCC5)CC4)cc13)-c1cc3c(c(=O)n1C2)COC(=O)[C@]3(O)CC [oral irinotecan, reference compound] ? 6960

* * *

- assayProcedure: Study 2: pharmacokinetics of oral irinotecan and M1, 5-20 mg/m^2 per day for 10 days during a 21 day cycle
- particulars: human, in vivo, oral, 20 mg/m2, AUC24, Day 1; dose group 20 mg/m^2; mean
reportedEndpoint: AUC (ng·h/mL)
Express your answer in ng·h/mL, writing the number without its unit.

Name the reported AUC value associated with the compound CCc1c2c(nc3ccc(OC(=O)N4CCC(N5CCCCC5)CC4)cc13)-c1cc3c(c(=O)n1C2)COC(=O)[C@]3(O)CC [oral irinotecan, reference compound] 271

* * *

- assayProcedure: Study 2: pharmacokinetics of oral irinotecan and M1, 5-20 mg/m^2 per day for 10 days during a 21 day cycle
- particulars: human, in vivo, oral, 10 mg/m2, AUC24, Day 12; dose group 10 mg/m^2; mean
reportedEndpoint: AUC (ng·h/mL)
Output spec: scalar in ng·h/mL, unitless text.

# query: AUC of entry CCc1c2c(nc3ccc(OC(=O)N4CCC(N5CCCCC5)CC4)cc13)-c1cc3c(c(=O)n1C2)COC(=O)[C@]3(O)CC [oral irinotecan, reference compound] 186
